tested on: Setaria; assay: Pre-emergence test; format: in vivo; details: greenhouse, 250 g a.i./ha, scored after three weeks
Below, each entry is listed with its recorded degree of damage, Setaria.
Respond numerically; units are % and should not be typed.

Consider the worked cases shown below.
CCc1cc(Cl)cc(OC)c1C1=C(O)C2(CCC(OC)CC2)NC1=O (single isomer, unassigned) [Example I-1-a-3]
100
CCc1cc(Cl)cc(OC)c1C1=C(O)C2(CCC(C)CC2)NC1=O (single isomer, unassigned) [Example I-1-a-4]
100
CCc1cc(Cl)cc(OC)c1C1=C(O)C(C)(C)NC1=O [Example I-1-a-5]
100

For the next question, use this compound.
INPUT: Answer briefly: degree of damage, Setaria recorded on Setaria for COc1cc(Cl)cc(C)c1C1=C(O)C2(CCOCC2)NC1=O [Example I-1-a-2]
OUTPUT: 80
